molecular target: μ-opioid receptor (MOR) (Homo sapiens, UniProt P35372); experiment: MOR agonist cAMP assay (HitHunter cAMP, forskolin-stimulated)
Sequence (P35372 whole entry): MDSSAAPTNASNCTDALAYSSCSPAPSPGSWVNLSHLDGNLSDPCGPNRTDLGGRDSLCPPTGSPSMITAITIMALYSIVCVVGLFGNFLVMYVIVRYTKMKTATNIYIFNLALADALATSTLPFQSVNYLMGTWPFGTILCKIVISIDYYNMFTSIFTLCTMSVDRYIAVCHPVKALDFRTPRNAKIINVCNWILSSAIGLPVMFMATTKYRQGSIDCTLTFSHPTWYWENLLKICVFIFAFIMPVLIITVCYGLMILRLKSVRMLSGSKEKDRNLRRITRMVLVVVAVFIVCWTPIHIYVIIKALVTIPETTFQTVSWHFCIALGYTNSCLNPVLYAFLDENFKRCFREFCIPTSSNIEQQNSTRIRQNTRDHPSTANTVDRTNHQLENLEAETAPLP
Square brackets hold non-standard residues; d marks the D form. Peptide text beside a SMILES is read from it. Dmt = Cc1cc(O)cc(C)c1C[C@H](N)C(=O)O; β3hF = N[C@H](CC(=O)O)Cc1ccccc1; Sar = CNCC(=O)O
PROPERTY_LABEL: EC50

COMPOUND	RESULT
CCC[C@@H](C(N)=O)N(C)C(=O)C[C@H](Cc1ccccc1)NC(=O)CNC(=O)[C@@H](C)NC(=O)[C@@H](N)Cc1c(C)cc(O)cc1C	< 1 nM
Cc1cc(O)cc(C)c1C[C@H](N)C(=O)N1Cc2ccccc2C[C@H]1C(=O)NCC(=O)N[C@H](CC(=O)N(C)CC(N)=O)Cc1ccccc1	50 to 200 nM
Cc1cc(O)cc(C)c1C[C@H](N)C(=O)NCC(=O)NCC(=O)N[C@H](CC(=O)N(C)CC(N)=O)Cc1ccccc1 [compound 81] (H-[Dmt]GG[β3hF][Sar]-NH2)	< 1 nM
CCC[C@@H](C(=O)O)N(C)C(=O)C[C@H](Cc1ccccc1)NC(=O)CNC(=O)[C@@H](CC(=O)O)NC(=O)[C@@H](N)Cc1c(C)cc(O)cc1C	< 1 nM

Item: "Cc1cc(O)cc(C)c1C[C@H](N)C(=O)N[C@H](C)C(=O)NCC(=O)N[C@H](CC(=O)N(C)[C@@H](Cc1ccccc1)C(=O)O)Cc1ccccc1" Test system: μ-opioid receptor (MOR) (Homo sapiens, UniProt P35372) Read-out: EC50 Value: ?
< 1 nM

---

target: μ-opioid receptor (MOR) (Homo sapiens); experiment: MOR agonist cAMP assay (HitHunter cAMP, forskolin-stimulated)
Square brackets hold non-standard residues; d marks the D form. Peptide text beside a SMILES is read from it. Dmt = Cc1cc(O)cc(C)c1C[C@H](N)C(=O)O; Sar = CNCC(=O)O
PROPERTY_LABEL: EC50

Would you mind telling me what EC50 value was observed for "Cc1cc(C(N)=O)cc(C)c1C[C@H](N)C(=O)N[C@H](C)C(=O)NCC(=O)N[C@H](CC(=O)N(C)[C@H](C(=O)O)c1ccccc1)Cc1ccccc1" ?
< 1 nM

Then this compound: "Cc1cc(O)cc(C)c1C[C@H](N)C(=O)N[C@H](CC(=O)O)C(=O)NCC(=O)N[C@H](CC(=O)N(C)[C@H](C(=O)O)c1ccccc1)Cc1ccccc1"
< 1 nM

Then this compound: "CCCC[C@@H](C(=O)O)N(C)C(=O)C[C@H](Cc1cccc(Cl)c1)NC(=O)CNC(=O)[C@@H](C)NC(=O)[C@@H](N)Cc1c(C)cc(O)cc1C"
< 1 nM

Then this compound: Cc1cc(O)cc(C)c1C[C@H](N)C(=O)N[C@H](CCCNC(=N)N)C(=O)N[C@@H](Cc1ccccc1)C(=O)N(C)CC(N)=O [compound 9] (H-[Dmt][dR]F[Sar]-NH2)
< 1 nM

Then this compound: "CCCC[C@@H](C(=O)O)N(C)C(=O)C[C@H](Cc1c[nH]c2ccccc12)NC(=O)CNC(=O)[C@@H](C)NC(=O)[C@@H](N)Cc1c(C)cc(O)cc1C"
1 to 10 nM

---

target: δ-opioid receptor (DOR) (Homo sapiens); test: DOR agonist cAMP assay (HitHunter cAMP, forskolin-stimulated)
Sequence (P41143 whole entry): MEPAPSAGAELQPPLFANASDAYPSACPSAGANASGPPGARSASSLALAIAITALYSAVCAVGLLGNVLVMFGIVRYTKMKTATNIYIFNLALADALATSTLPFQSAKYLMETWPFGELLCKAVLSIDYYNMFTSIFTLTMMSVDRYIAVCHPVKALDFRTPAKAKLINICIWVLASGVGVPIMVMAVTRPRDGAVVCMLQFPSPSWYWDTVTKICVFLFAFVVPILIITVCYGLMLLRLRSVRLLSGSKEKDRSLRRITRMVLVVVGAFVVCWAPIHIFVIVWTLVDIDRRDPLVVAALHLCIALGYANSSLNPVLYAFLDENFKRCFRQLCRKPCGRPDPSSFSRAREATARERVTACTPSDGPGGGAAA
Square brackets hold non-standard residues; d marks the D form. Peptide text beside a SMILES is read from it. Dip = N[C@H](C(=O)O)C(c1ccccc1)c1ccccc1; Dmt = Cc1cc(O)cc(C)c1C[C@H](N)C(=O)O; Sar = CNCC(=O)O
PROPERTY_LABEL: EC50

Illustrative cases are given below, each with its answer.
COMPOUND	EC50
CCCC[C@@H](C(=O)O)N(C)C(=O)C[C@H](Cc1c[nH]c2ccccc12)NC(=O)CNC(=O)[C@@H](C)NC(=O)[C@@H](N)Cc1c(C)cc(C(N)=O)cc1C	1 to 10 nM
Cc1cc(O)cc(C)c1C[C@H](N)C(=O)N[C@H](C)C(=O)NCC(=O)N[C@H](CC(=O)N(CC(N)=O)CC1CCCCC1)Cc1ccccc1	1 to 10 nM

Would you mind telling me what EC50 value was observed for "Cc1cc(C(N)=O)cc(C)c1C[C@H](N)C(=O)N[C@H](C)C(=O)NCC(=O)N[C@H](CC(=O)N(C)[C@@H](Cc1c[nH]c2ccccc12)C(=O)O)Cc1ccccc1" ?
1 to 10 nM

Then this compound: Cc1cc(O)cc(C)c1C[C@H](N)C(=O)N[C@H](CCCNC(=N)N)C(=O)N[C@H](C(=O)N(C)CC(N)=O)C(c1ccccc1)c1ccccc1 [compound 26] (H-[Dmt][dR][Dip][Sar]-NH2)
> 200 nM

Then this compound: "Cc1cc(C(N)=O)cc(C)c1C[C@H](N)C(=O)N[C@H](C)C(=O)NCC(=O)N[C@H](CC(=O)N(C)[C@H](C(=O)O)C(C)C)Cc1ccccc1"
< 1 nM
